Source listed as the supplement of paper PMC12042874.

test: amyloid nucleation score (Sup35N fusion, yeast selection) (log enrichment); library NNK3; higher = more nucleation; inactive = no reads after selection;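 note: zero at mode of non-aggregating sequences after 7 days selection at 30°C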
measurement label: amyloid nucleation score

| substance | amyloid nucleation score |
| --- | --- |
| YRIYFLRCPDLTRMFNFVEL | inactive |
| ICFFRGAARMNCLGYQGITR | inactive |
| SVGEKGN | inactive |
| AWASIDVSNAL | inactive |
| AVQQKSECFLFAFLILRDWV | inactive |
| IESKAWISVAGARFYSLGVG | inactive |

Please report amyloid nucleation score for the following substance: IRMHGWPYRLVREICFNGFF
0.028

Please report amyloid nucleation score for the following substance: LISMVYLNVRLCQ
inactive

Please report amyloid nucleation score for the following substance: PDSMNFTPDNHHVRNGYNNF
inactive

Please report amyloid nucleation score for the following substance: CPTASHNIALLTYDQTRTQY
inactive

Please report amyloid nucleation score for the following substance: SNGWFYFCFVSWWHSSFDGS
inactive

Please report amyloid nucleation score for the following substance: PREARQHRVRRTGFSVVFVS
inactive

Please report amyloid nucleation score for the following substance: FCGPFSYGRLTYGFWFRKRP
1.75

Please report amyloid nucleation score for the following substance: RIDRFCSFFNRSPSDCLLLS
inactive

Please report amyloid nucleation score for the following substance: RTKKMRNGASHRVMS
inactive

Please report amyloid nucleation score for the following substance: SRFYSDTQPTCGWKRVESRG
-0.897

Please report amyloid nucleation score for the following substance: DNATARLQTRNEWSMR
inactive

Please report amyloid nucleation score for the following substance: QYFHMTWSVIVYEIGVRPYI
-0.449

Please report amyloid nucleation score for the following substance: MYVQVS
-0.795

Please report amyloid nucleation score for the following substance: IDALIYG
inactive

###

Listing of entries alongside the reported amyloid nucleation score.
assay: amyloid nucleation score (Sup35N fusion, yeast selection) (log enrichment); library NNK2; higher = more nucleation; inactive = no reads after selection
Give the figure by itself; no unit, no explanation.

Consider the worked cases shown below.
| substance | measurement label | test result |
| --- | --- | --- |
| ECVRTLFYKLMTFAWLELRS | amyloid nucleation score | -1.02 |
| IIKECEWNCIVTSDIAYVRW | amyloid nucleation score | 5.48 |
| LSIRYLVYEPN | amyloid nucleation score | 0.27 |
| CDFLWWPTQFANRRTKVGVW | amyloid nucleation score | 0.083 |

Please report amyloid nucleation score for the following substance: LGSLNNPA
7.94

Please report amyloid nucleation score for the following substance: HGVMKISTCYFGGKESYYVE
-0.206

Please report amyloid nucleation score for the following substance: HSWILNHNIDVTIGNVTWSG
6.86

Please report amyloid nucleation score for the following substance: FCYQMSEVWIWCKFIFSI
-1

Please report amyloid nucleation score for the following substance: TSYTLDYCGISMLKYFNSVD
7.19

###

test: amyloid nucleation score (Sup35N fusion, yeast selection) (log enrichment); library NNK2; higher = more nucleation; inactive = no reads after selection
Mark Criterion not met for amyloid nucleation score values under 0.06, and Criterion met for everything at or above.

Some solved entries appear below for comparison.
| entry sequence | group |
| --- | --- |
| VKNFTPFRHILVITYNITFN | Criterion met |
| GSCNASVPVQV | Criterion not met |
| NAYWNDGFVQAFGRGK | Criterion not met |

Determine whether this sequence has amyloid nucleation score no lower than 0.06: LCRVALKEDS
Criterion met

Determine whether this sequence has amyloid nucleation score no lower than 0.06: NSTLRSLYTVFFIRMLQMVG
Criterion not met
